B1: Far upstream element-binding protein 1, residues 98 to 169; numbered along this chain, Q96AE4 (parent)
chain: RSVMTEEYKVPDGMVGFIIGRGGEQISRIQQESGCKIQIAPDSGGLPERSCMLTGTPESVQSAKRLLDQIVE

# Variants of: B1
# assayProcedure: abundance fitness (aPCA) (normalised: wild type 0, dead -1); higher = more abundant; growth selection in yeast, the domain comes from the species named
# testConditions: Homo sapiens
Please mark MET if the recorded abundance fitness is equal to or greater than -0.06, and NOT MET if it falls below.

Reported abundance fitness at or above -0.06? S50W NOT MET

Continue with I37H NOT MET

Similarly, D42E ? MET

Subsequent entry: F17D MET

Continue with D68P NOT MET

Please answer likewise for L66A NOT MET

Param item: S50V MET

Same thing, different variant: Q25D NOT MET

Follow-up item: T54A NOT MET

Would you kindly repeat that for K9Y ? NOT MET

Then what about the variant V60W ? NOT MET

Also T56G , if possible. NOT MET

Further, for M52L ? MET

What about D12V ? MET

G13K ? MET

Also P41K , if possible. MET

Same question for Q61S please. MET

Okay, and I19V ? MET

Record: R21V NOT MET

What do you have for A63E ? NOT MET

Then what about the variant L53W ? NOT MET

Also check S27Q MET

// query: Q38I MET

Now consider R28N and answer again. NOT MET

Next: Q25S MET

What about K9R ? MET

Now this one: I18N NOT MET

Note, next up: M52A MET

Next variant up: L67P NOT MET

Another variant to look at: G45Y NOT MET

And the next one, T54W ? NOT MET

And then I37L , what is it? NOT MET

Same for E48S MET

Note, next up: L67V NOT MET

Queued: P57I NOT MET

Please give the result for P11L too. NOT MET

Next variant: L53A NOT MET

Let us now turn to E72Y MET

Lookup I39R NOT MET

Please answer likewise for S2Q MET

How about D68S ? MET

Same read-out for V60R ? MET

Try R65H next. MET

Could you do the same for R65T , please? MET

Entry to check: P11N NOT MET
